# pKd annotations
Target: His-tagged BACE1 protein (Example 15) (Homo sapiens (Human), UniProt P56817 22-457)
Sequence (P56817 22-457 limits assumed): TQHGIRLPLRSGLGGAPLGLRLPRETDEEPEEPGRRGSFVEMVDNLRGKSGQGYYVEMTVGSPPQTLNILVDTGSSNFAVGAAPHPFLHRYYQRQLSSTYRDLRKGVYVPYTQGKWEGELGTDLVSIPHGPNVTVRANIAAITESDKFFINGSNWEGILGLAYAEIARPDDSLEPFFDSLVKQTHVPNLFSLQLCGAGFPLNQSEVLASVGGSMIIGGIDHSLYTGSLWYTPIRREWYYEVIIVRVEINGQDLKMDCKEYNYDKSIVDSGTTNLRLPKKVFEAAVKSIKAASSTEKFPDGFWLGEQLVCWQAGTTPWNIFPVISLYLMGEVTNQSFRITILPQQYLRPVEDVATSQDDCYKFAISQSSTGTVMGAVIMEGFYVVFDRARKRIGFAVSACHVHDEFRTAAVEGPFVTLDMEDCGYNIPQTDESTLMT
Assay: SPR (Biacore T200), Fab on captured His-BACE1;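 also: Single-cycle kinetics with serially diluted Fab flowed over BACE1 captured by anti-His antibody on a CM5 chip, rates fitted to a one-to-one Langmuir model, Kd derived as koff over kon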
FYI, pKd means -log10 of a concentration in mol per litre.

Which value of pKd has been reported for 6266.7 Fab (Fab, V domains shown) VH: QVQLVQSGAEVKKPGSSVKVSCKASGGTLSHYGVSWVRQAPGQGLEWMGNIIPGIGTANYAQKFQGRVTITADESTSTAYMELSSLRSEDTAVYYCARSGGTKYGELDVWGQGTMVTVSS VL: EIVMTQSPATLSVSPGERATLSCRASQSVSSNLAWYQQKPGQAPRLLIYGASTRAYGIPARFSGSGSGTEFTLTISSLQSEDAAVYYCQQLILWPPRTFGGGTKVEIK in the records?
9.21
